Values from ChEMBL document CHEMBL1275594

Experiment: Half life in human THP1 cells at 4 mg/L
Assay type: ADME, cell-based
Settings: THP-1 cells

# COMPOUND, UNITS, half-life at 4 mg/L
rows = [
    ("CC(=O)NC[C@H]1CN(c2ccc(-c3ccc(CNCc4cnn[nH]4)cc3)c(F)c2)C(=O)O1 [RADEZOLID]", "min", 6),
]

###

Experiment: Half life in mouse J774 cells at 4 mg/L
Format: ADME, cell-based

# SAMPLE_SMILES, half-life at 4 mg/L (min)
rows = [
    ("CC(=O)NC[C@H]1CN(c2ccc(-c3ccc(CNCc4cnn[nH]4)cc3)c(F)c2)C(=O)O1", 6),
]
